All values here come from ChEMBL document CHEMBL1201862.

# Test system: DU-145
# assay: NCI tumour cell line growth inhibition, 48 h
Calls of active or inactive are those of the source. Rule as the data show it: active = GI50 up to about 1.1 µM and inactive = higher.
Hi! Could you answer with just one of these? true (active), false (inactive)

Qu. Please let me know the test result on file for `c1csc(-c2ccc(-c3ccc(-c4cccs4)s3)s2)c1` .
Ans. false

Qu. So what was the verdict on CCC(C)C1NC(=O)C(NC(=O)c2c3nc4c(C(=O)NC5C(=O)NC(C(C)CC)C(=O)N6CCCC6C(=O)N(C)CC(=O)N(C)C(C(C)C)C(=O)OC5C)ccc(C)c4oc-3c(C)c(=O)c2O)C(C)OC(=O)C(C(C)C)N(C)C(=O)CN(C)C(=O)C2CCCN2C1=O (stereo unspecified) in this test?
Ans. false

Qu. Record request — test call for `C[C@H](NC1=CC(=O)C(N[C@@H](C)[C@H](O)c2ccccc2)=CC1=O)[C@H](O)c1ccccc1`
Ans. false

Qu. Answer briefly: the call reported for `COC1=C2C[C@@H](C)C[C@@H](OC)[C@@H](O)[C@H](C)/C=C(\C)[C@@H](OC(N)=O)[C@H](OC)/C=C\C=C(/C)C(=O)NC(=CC1=O)C2=O` in this assay.
Ans. true

Qu. What call does the record list for C1=C(c2ccccc2)NC2=N[C@H]3CCCC[C@@H]3N2C1c1ccccc1 (stereo partly specified) ?
Ans. false

Qu. Call for entry `Oc1cc(/C=C/c2ccccc2)nc2cc3c(cc12)OCO3` :
Ans. false
